Provenance of the data: ChEMBL document CHEMBL3352199

Test system: Staphylococcus aureus
Assay method text: Antimicrobial activity against Staphylococcus aureus ATCC 25923 after 12 to 16 hrs by broth micro-dilution method
Assay type: functional
Measured MIC of individual entries
Observation type: MIC (µM)

| Molecule | Tested system | U | Obs value |
| --- | --- | --- | --- |
| CCOC(=O)C1=C(c2ccccc2)N=c2s/c(=C\c3ccc(-c4cccc(C(=O)O)c4)o3)c(=O)n2C1c1ccc(F)cc1 (stereo not drawn) | Staphylococcus aureus | µM | 6.25 |
| CCOC(=O)C1=C(c2ccccc2)N=c2s/c(=C\c3ccc(-c4ccc(C(=O)O)cc4)o3)c(=O)n2C1c1ccc(F)cc1 (stereo not drawn) | Staphylococcus aureus | µM | 6.25 |
| CCOC(=O)C1=C(c2ccccc2)N=c2s/c(=C\c3ccc(-c4cccc(C(=O)O)c4)o3)c(=O)n2C1c1ccc(Cl)cc1 (stereo not drawn) | Staphylococcus aureus | µM | 6.25 |

* * *

Measured MIC of individual entries
Test system: Staphylococcus aureus
Assay method text: Antimicrobial activity against Staphylococcus aureus ATCC 25923 after 12 to 16 hrs by broth micro-dilution method
Format: functional

| Molecule | U | MIC |
| --- | --- | --- |
| O=C(O)c1cccc(-c2ccc(/C=c3\sc4n(c3=O)C(c3ccc(Cl)cc3)C=C(c3ccccc3)N=4)o2)c1 (configuration not stated) | µM | 3.12 |
| Cc1nnc(SCC2=C(C(=O)O)N3C(=O)[C@@H](NC(=O)Cn4cnnn4)[C@H]3SC2)s1 | µM | 17.6 |
| O=C(O)c1cccc(-c2ccc(/C=c3\sc4n(c3=O)C(c3ccc(F)cc3)C=C(c3ccccc3)N=4)o2)c1 (configuration not stated) | µM | 6.25 |
| CCOC(=O)C1=C(c2ccccc2)N=c2s/c(=C\c3ccc(-c4cccc(C(=O)O)c4)o3)c(=O)n2C1c1ccc2c(c1)OCO2 (configuration not stated) | µM | 6.25 |
| CCOC(=O)C1=C(c2ccccc2)N=c2s/c(=C\c3ccc(-c4ccc(C(=O)O)cc4)o3)c(=O)n2C1c1ccc(Cl)cc1 (configuration not stated) | µM | 6.25 |
| COc1ccc(C2C=C(c3ccccc3)N=c3s/c(=C\c4ccc(-c5cccc(C(=O)O)c5)o4)c(=O)n32)cc1 (configuration not stated) | µM | 6.25 |
| CCOC(=O)C1=C(c2ccccc2)N=c2s/c(=C\c3ccc(-c4cccc(C(=O)O)c4)o3)c(=O)n2C1c1ccc([N+](=O)[O-])cc1 (configuration not stated) | µM | 25 |

* * *

Test system: Staphylococcus epidermidis
Assay method text: Antibiofilm activity against Staphylococcus epidermidis ATCC 35984 at 50 uM after 18 hrs by crystal violet staining method
Type: functional, organism-based
Active and inactive are the calls of the source. No cut-off for these calls is given here.
Classes used: active, inactive

| Compound | Assigned class |
| --- | --- |
| CCOC(=O)C1=C(C)N=c2s/c(=C\c3ccc(OCC(=O)O)c(OC)c3)c(=O)n2C1c1ccc(OC)cc1 (configuration not stated) | inactive |
| CCOC(=O)C1=C(c2ccccc2)N=c2s/c(=C\c3ccc(-c4ccc(C(=O)O)cc4)o3)c(=O)n2C1c1ccc(OC)cc1 (configuration not stated) | inactive |
| CCOC(=O)C1=C(c2ccccc2)N=c2s/c(=C\c3ccc(-c4cccc(C(=O)O)c4)o3)c(=O)n2C1c1ccc(F)cc1 (configuration not stated) | active |
| CCOC(=O)C1=C(c2ccccc2)N=c2s/c(=C\c3ccc(-c4cccc(C(=O)O)c4)o3)c(=O)n2C1c1ccc(OC)cc1 (configuration not stated) | active |
| O=C(O)c1cccc(-c2ccc(/C=c3\sc4n(c3=O)C(c3ccc(F)cc3)C=C(c3ccccc3)N=4)o2)c1 (configuration not stated) | active |
| CCOC(=O)C1=C(C)N=c2s/c(=C\c3ccc(-c4cccc(C(=O)O)c4)o3)c(=O)n2C1c1ccc(OC)cc1 (configuration not stated) | inactive |
| CCOC(=O)C1=C(c2ccccc2)N=c2s/c(=C\c3ccc(-c4cccc(C(=O)O)c4)o3)c(=O)n2C1c1ccccc1 (configuration not stated) | inactive |

* * *

Test system: Staphylococcus epidermidis
Assay method text: Antibiofilm activity against Staphylococcus epidermidis ATCC 35984 at 50 uM after 18 hrs by crystal violet staining method
Assay type: functional, organism-based
The source made the active and inactive calls. The calls are words filed in the database; no cut-off is given here.
Classes used: 1.0 for active, 0.0 for inactive

| Compound | Assigned class |
| --- | --- |
| CCOC(=O)C1=C(c2ccccc2)N=c2s/c(=C\c3ccc(-c4cccc(C(=O)O)c4)o3)c(=O)n2C1c1ccc(Cl)cc1 (stereo not drawn) | 1.0 |
| COc1ccc(C2C=C(c3ccccc3)N=c3s/c(=C\c4ccc(-c5cccc(C(=O)O)c5)o4)c(=O)n32)cc1 (stereo not drawn) | 0.0 |
| CCOC(=O)C1=C(c2ccccc2)N=c2s/c(=C\c3ccc(-c4ccc(C(=O)O)cc4)o3)c(=O)n2C1c1ccc(Cl)cc1 (stereo not drawn) | 1.0 |
| CCOC(=O)C1=C(c2ccccc2)N=c2s/c(=C\c3ccc(OCC(=O)O)c(OC)c3)c(=O)n2C1c1ccc(Cl)cc1 (stereo not drawn) | 0.0 |
| CCOC(=O)C1=C(C)N=c2s/c(=C\c3ccc(OCC(=O)O)cc3)c(=O)n2C1c1ccc(Cl)cc1 (stereo not drawn) | 0.0 |
| CCOC(=O)C1=C(c2ccccc2)N=c2s/c(=C\c3ccc(-c4cccc(C(=O)O)c4)o3)c(=O)n2C1c1ccc(O)cc1 (stereo not drawn) | 0.0 |
| CCOC(=O)C1=C(c2ccccc2)N=c2s/c(=C\c3ccc(-c4cccc(C(=O)O)c4)o3)c(=O)n2C1c1ccc2c(c1)OCO2 (stereo not drawn) | 1.0 |
| CCOC(=O)C1=C(C)N=c2s/c(=C\c3ccc(OCC(=O)O)cc3)c(=O)n2C1c1ccc(OC)cc1 (stereo not drawn) | 0.0 |

* * *

System: Staphylococcus epidermidis
Assay method text: Antibiofilm activity against Staphylococcus epidermidis ATCC 35984 at 50 uM after 18 hrs by crystal violet staining method
Format: functional, organism-based
The source made the active and inactive calls. No cut-off for these calls is given here.
Classes used: 1 = active, 0 = inactive

| Molecule | Assigned class |
| --- | --- |
| CCOC(=O)C1=C(c2ccccc2)N=c2s/c(=C\c3ccc(-c4ccc(C(=O)O)cc4)o3)c(=O)n2C1c1ccc(F)cc1 (centres undefined) | 1 |
| O=C(O)c1cccc(-c2ccc(/C=c3\sc4n(c3=O)C(c3ccc(Cl)cc3)C=C(c3ccccc3)N=4)o2)c1 (centres undefined) | 1 |
| CCOC(=O)C1=C(c2ccccc2)N=c2s/c(=C\c3ccc(OCC(=O)O)cc3)c(=O)n2C1c1ccc(Cl)cc1 (centres undefined) | 0 |
| CCOC(=O)C1=C(c2ccccc2)N=c2s/c(=C\c3ccc(-c4cccc(C(=O)O)c4)o3)c(=O)n2C1c1ccc([N+](=O)[O-])cc1 (centres undefined) | 0 |

* * *

Tested on: Escherichia coli
Assay method text: Antimicrobial activity against Escherichia coli ATCC 25922 after 12 to 16 hrs by broth micro-dilution method
Format: functional

| Compound | MIC |
| --- | --- |
| CCOC(=O)C1=C(c2ccccc2)N=c2s/c(=C\c3ccc(-c4ccc(C(=O)O)cc4)o3)c(=O)n2C1c1ccc(OC)cc1 (stereo not drawn) | > 200 µM |
| CCOC(=O)C1=C(c2ccccc2)N=c2s/c(=C\c3ccc(-c4ccc(C(=O)O)cc4)o3)c(=O)n2C1c1ccc(F)cc1 (stereo not drawn) | > 200 µM |
| CCOC(=O)C1=C(c2ccccc2)N=c2s/c(=C\c3ccc(-c4cccc(C(=O)O)c4)o3)c(=O)n2C1c1ccc2c(c1)OCO2 (stereo not drawn) | > 200 µM |

* * *

Assay method text: Inhibition of recombinant YycG kinase HK domain autophosphorylation activity (unknown origin) expressed in Escherichia coli BL21 (DE3) preincubated for 30 mins by ATP-Luminescence assay
pIC50: −log10 of the molar value.
Observation type: pIC50

| Compound | Observation type | Obs value |
| --- | --- | --- |
| COc1ccc(C2C=C(c3ccccc3)N=c3s/c(=C\c4ccc(-c5cccc(C(=O)O)c5)o4)c(=O)n32)cc1 (centres undefined) | pIC50 | 4.30 |
| O=C(O)c1cccc(-c2ccc(/C=c3\sc4n(c3=O)C(c3ccc(Cl)cc3)C=C(c3ccccc3)N=4)o2)c1 (centres undefined) | pIC50 | 4.25 |
| CCOC(=O)C1=C(c2ccccc2)N=c2s/c(=C\c3ccc(-c4cccc(C(=O)O)c4)o3)c(=O)n2C1c1ccc(Cl)cc1 (centres undefined) | pIC50 | 4.90 |
| CCOC(=O)C1=C(c2ccccc2)N=c2s/c(=C\c3ccc(-c4cccc(C(=O)O)c4)o3)c(=O)n2C1c1ccc2c(c1)OCO2 (centres undefined) | pIC50 | 4.85 |
